Test system: HEK-293T
Assay: Incucyte cell viability with HEK293T; also: unitless GR value; below 1 slowed growth and below 0 cell loss
Type: toxicity, cell-based
Conditions: human, 0 h, 10 µM, compound concentration 10 uM, replicate number 1
The label depends only on Growth Rate: yes if it is at least 0.1, no if it is smaller.

Task: Please tell me: is the molecule O=C1c2c(Br)c(Br)c(Br)c(Br)c2C(=O)N1c1ncc[nH]1 at or over 0.1 in terms of Growth Rate?
Output: yes

Task: Please tell me: is the molecule CC(C)(O)CNC(=O)N1C(=O)N(c2cccc(C(F)(F)F)c2)C2=C(C(=O)CC2)[C@H]1c1ccc(C#N)cc1 at or over 0.1 in terms of Growth Rate?
Output: no

Task: Please tell me: is the molecule Cc1nsc(Nc2cnc(C(F)(F)F)cn2)c1C(=O)Nc1ccc(O[C@H]2CCCN(CC(F)(F)F)C2)nc1 at or over 0.1 in terms of Growth Rate?
Output: no

Task: Please tell me: is the molecule O=C(O)CCCCCC[C@@H]1C(=O)NC(=O)N1CCC(O)C1CCCCC1 (stereo not given in full) at or over 0.1 in terms of Growth Rate?
Output: no

Task: Please tell me: is the molecule Cc1cc(C(C#N)c2ccc(Cl)cc2)c(Cl)cc1NC(=O)c1cc(I)cc(I)c1O (stereo not given) at or over 0.1 in terms of Growth Rate?
Output: yes

Task: Please tell me: is the molecule O=C(O)[C@]1(Cc2cccc(Nc3nccs3)n2)CC[C@@H](Oc2cccc(Cl)c2F)CC1 at or over 0.1 in terms of Growth Rate?
Output: yes

Task: Please tell me: is the molecule Fc1ccc(-c2c3cccc(C(F)(F)F)c3nn2Cc2ccc(F)cc2Cl)cc1 at or over 0.1 in terms of Growth Rate?
Output: yes

Task: Please tell me: is the molecule C1CCC(NC2CCCCC2)CC1.Cc1cc(Cl)ccc1S(=O)(=O)NC[C@H]1C2CCC(CC2)[C@@H]1/C=C\CCCC(=O)O at or over 0.1 in terms of Growth Rate?
Output: yes

Task: Please tell me: is the molecule CCOC(=O)c1ncn2c1[C@@H]1CCCN1C(=O)c1cc(OC)ccc1-2 at or over 0.1 in terms of Growth Rate?
Output: yes

Task: Please tell me: is the molecule O=c1[nH]c(CS[C@H]2CC[C@H](O)CC2)nc2cc(OCC3CC3)cc(F)c12 at or over 0.1 in terms of Growth Rate?
Output: yes

Task: Please tell me: is the molecule Nc1nc2cc(-c3cc(Cl)ccc3Oc3cc(F)c(S(=O)(=O)Nc4ncns4)cc3F)ccc2[nH]1 at or over 0.1 in terms of Growth Rate?
Output: yes

Task: Please tell me: is the molecule Cc1cc([N+](=O)[O-])c(NS(=O)(=O)c2cccc(C(=O)O)c2)cc1-c1cccnc1 at or over 0.1 in terms of Growth Rate?
Output: no

Task: Please tell me: is the molecule CCCCC[C@H](O)/C=C/[C@H]1[C@H](O)CC(=O)[C@@H]1CCCCCCC(=O)O at or over 0.1 in terms of Growth Rate?
Output: no

Task: Please tell me: is the molecule CN1Cc2nccc(-c3cn(C)nc3-c3ccc(F)cc3)c2C1=O.Cl at or over 0.1 in terms of Growth Rate?
Output: no

Task: Please tell me: is the molecule O=C(N[C@H]1CCCCC/C=C\C2C[C@@]2(C(=O)O)NC(=O)[C@@H]2C[C@@H](Oc3ccncc3)CN2C1=O)OC1CCCC1 (stereo not given in full) at or over 0.1 in terms of Growth Rate?
Output: no

Task: Please tell me: is the molecule COc1cc2ncnc(Nc3ccc(Oc4ccccc4)cc3C)c2cc1OC.Cl at or over 0.1 in terms of Growth Rate?
Output: no

Task: Please tell me: is the molecule CN1CCN(c2nc(C3=C(c4c[nH]c5ccccc45)C(=O)NC3=O)c3ccccc3n2)CC1 at or over 0.1 in terms of Growth Rate?
Output: no

Task: Please tell me: is the molecule CC(C)(C[C@H]1CN(S(=O)(=O)c2cccc(C(F)(F)F)c2)c2cc(-c3cc(F)cc(OC(F)F)c3)ccc2O1)C(=O)O at or over 0.1 in terms of Growth Rate?
Output: yes

Task: Please tell me: is the molecule Clc1ccc(-c2nc3sccn3c2/C=N/OCc2ccc(Cl)c(Cl)c2)cc1 at or over 0.1 in terms of Growth Rate?
Output: no

Task: Please tell me: is the molecule O=C(O)C(F)(F)F.O=C1NC(=O)/C(=C/c2c[nH]c(=O)c(-c3ccc(N4CCNCC4)nc3)c2)S1 at or over 0.1 in terms of Growth Rate?
Output: yes

Task: Please tell me: is the molecule Cc1cccc(-c2nn3c(c2-c2ccnc4ccc(C(N)=O)cc24)CCC3)n1 at or over 0.1 in terms of Growth Rate?
Output: no

The reported measurements were obtained from ChEMBL document CHEMBL5303304.
